System: MOLT-4 leukemia
Test: NCI tumour cell line growth inhibition, 48 h
ATTRIBUTE_MEASURED: TGI (µM)
Report the figure in µM without appending any unit label.

Worked cases, answers included:
compound=c1ccc2cc(NCNc3ccc4ccccc4c3)ccc2c1 measurement_unit=µM quantitative_result=29.9
compound=CCN(CC)CCN(C(=Nc1ccccc1)N1CCCCC1)c1ccccc1 measurement_unit=µM quantitative_result=25.2
compound=[Cl][Hg][c]1ccc(Cl)s1 measurement_unit=µM quantitative_result=6.68
compound=CCCCCCCCC/C(=N\NC(=O)c1ccncc1)c1ccc(O)c(O)c1O measurement_unit=µM quantitative_result=25.3
compound=Cn1nc(C(F)(F)F)cc1-c1c[nH]c(OCc2ccc(Cl)cc2)c(-c2ccc(Cl)c(C(F)(F)F)c2)c1=O measurement_unit=µM quantitative_result=3.03

[Q] Provide one value: measured TGI of `CCOC(=O)C(C(=O)OCC)c1ccc([N+](=O)[O-])o1`
[A] 19.8

[Q] Provide one value: measured TGI of `C[C@]12CC[C@@H]3c4cc(OC(F)F)c(OS(N)(=O)=O)cc4CC[C@H]3[C@@H]1CC[C@@H]2OS(N)(=O)=O`
[A] 47.7

[Q] Provide one value: measured TGI of `O=C(CCCN1CCC(Nc2ccccc2)(c2nnnn2C2CCCCC2)CC1)c1ccc(F)cc1`
[A] 46.2

[Q] Provide one value: measured TGI of N#C[Se]CCN1C(=O)C2C(C1=O)[C@H]1C=C[C@@H]2S1 (stereo not given in full)
[A] 8.06
